Data credit: patent US20250186627A1

System: NRG-mice bearing LNCaP tumors
ASSAY NAME: Biodistribution (and PET/SPECT imaging) in NRG-mice bearing LNCaP tumors
Assay type: in vivo
REPORTED CONDITIONS: 3 h p.i., Avg
*1 amine or outer side, *2 acyl side, *3 side chain or, on linkers, in order; H or OH if unused. Where a SMILES comes first, the peptide text is derived from it. [ ]: non-standard residue; d: D form. The star is where a group is joined. ξ: configuration not given here. ξLys(Nα-CO-ξAad) = O=C(O)CCCC(NC(=O)NC(CCCCN*)C(=O)O)C(=O)O; Butanoyl(4-(4-NO2Ph)) = O=C(CCCc1ccc([N+](=O)[O-])cc1)*; DOTA = O=C(O)CN1CCN(CC(=O)O)CCN(CC(=O)*)CCN(CC(=O)O)CC1; ξAla(9-anthryl) = NC(Cc1c2ccccc2cc2ccccc12)C(=O)O; X1 = O=C(C1CCC(CN[*:1])CC1)[*:2]; ξK = NCCCCC(N)C(=O)O
MEASUREMENT LABEL: Biodistribution: Liver (% ID/g)
The response must be a number in % ID/g with no trailing unit.

compound="O=C([O-])CN1CCN(CC(=O)[O-])CCN(CC(=O)NCCCCC(NC(=O)CNC(=O)CCCc2ccc([N+](=O)[O-])cc2)C(=O)NCC(=O)NCC2CCC(C(=O)NC(Cc3c4ccccc4cc4ccccc34)C(=O)NCCCCC(NC(=O)NC(CCCC(=O)O)C(=O)O)C(=O)O)CC2)CCN(CC(=O)[O-])CC1.[225Ac+3] (centres unmarked) [^225Ac-CCZ02017] ({Butanoyl(4-(4-NO2Ph))}-G[ξK](DOTA)G[X1][ξAla(9-anthryl)]-{ξLys(Nα-CO-ξAad)})" result_number=1.90

// next entry
Note to self: Biodistribution: Liver recorded for O=C([O-])CN1CCN(CC(=O)[O-])CCN(CC(=O)NCCCCC(NC(=O)CNC(=O)CCCc2ccc([N+](=O)[O-])cc2)C(=O)NCC(=O)NCC2CCC(C(=O)NC(Cc3c4ccccc4cc4ccccc34)C(=O)NCCCCC(NC(=O)NC(CCCC(=O)O)C(=O)O)C(=O)O)CC2)CCN(CC(=O)[O-])CC1.[177Lu+3] (centres unmarked) [^177Lu-CCZ02017] ({Butanoyl(4-(4-NO2Ph))}-G[ξK](DOTA)G[X1][ξAla(9-anthryl)]-{ξLys(Nα-CO-ξAad)}) was 2.31

----------
Here, each record is paired with measured Biodistribution: Seminal gland data.
Tested on: NRG-mice bearing LNCaP tumors
ASSAY NAME: Biodistribution (and PET/SPECT imaging) in NRG-mice bearing LNCaP tumors
Format: in vivo
REPORTED CONDITIONS: 3 h p.i., Avg
*1 amine or outer side, *2 acyl side, *3 side chain or, on linkers, in order; H or OH if unused. Where a SMILES comes first, the peptide text is derived from it. [ ]: non-standard residue; d: D form. The star is where a group is joined. ξ: configuration not given here. ξLys(Nα-CO-ξAad) = O=C(O)CCCC(NC(=O)NC(CCCCN*)C(=O)O)C(=O)O; Butanoyl(4-(4-NO2Ph)) = O=C(CCCc1ccc([N+](=O)[O-])cc1)*; DOTA = O=C(O)CN1CCN(CC(=O)O)CCN(CC(=O)*)CCN(CC(=O)O)CC1; ξAla(9-anthryl) = NC(Cc1c2ccccc2cc2ccccc12)C(=O)O; X1 = O=C(C1CCC(CN[*:1])CC1)[*:2]; ξK = NCCCCC(N)C(=O)O
Quick note: give the figure in % ID/g, leave out the unit.

molecule="O=C([O-])CN1CCN(CC(=O)[O-])CCN(CC(=O)NCCCCC(NC(=O)CNC(=O)CCCc2ccc([N+](=O)[O-])cc2)C(=O)NCC(=O)NCC2CCC(C(=O)NC(Cc3c4ccccc4cc4ccccc34)C(=O)NCCCCC(NC(=O)NC(CCCC(=O)O)C(=O)O)C(=O)O)CC2)CCN(CC(=O)[O-])CC1.[177Lu+3] (centres unmarked) [^177Lu-CCZ02017] ({Butanoyl(4-(4-NO2Ph))}-G[ξK](DOTA)G[X1][ξAla(9-anthryl)]-{ξLys(Nα-CO-ξAad)})" measurement_label="Biodistribution: Seminal gland" result_number=0.93

// moving on: another record for Biodistribution: Seminal gland
Biodistribution: Seminal gland recorded for this molecule, COc1ccc(CCCC(=O)NCC(=O)NC(CCCCNC(=O)CN2CCN(CC(=O)[O-])CCN(CC(=O)[O-])CCN(CC(=O)[O-])CC2)CC(=O)NCC2CCC(C(=O)NC(Cc3c4ccccc4cc4ccccc34)C(=O)NCCCCC(NC(=O)NC(CC(F)C(=O)O)C(=O)O)C(=O)O)CC2)cc1.[177Lu+3] (centres unmarked) [^177Lu-CCZ02019] , is 0.59

----------
Biodistribution: Muscle: recorded values
Test system: NRG-mice bearing LNCaP tumors
ASSAY NAME: Biodistribution (and PET/SPECT imaging) in NRG-mice bearing LNCaP tumors
Type: in vivo
REPORTED CONDITIONS: 3 h p.i., Avg
*1 amine or outer side, *2 acyl side, *3 side chain or, on linkers, in order; H or OH if unused. Where a SMILES comes first, the peptide text is derived from it. [ ]: non-standard residue; d: D form. The star is where a group is joined. ξ: configuration not given here. ξLys(Nα-CO-ξAad) = O=C(O)CCCC(NC(=O)NC(CCCCN*)C(=O)O)C(=O)O; Butanoyl(4-(4-NO2Ph)) = O=C(CCCc1ccc([N+](=O)[O-])cc1)*; DOTA = O=C(O)CN1CCN(CC(=O)O)CCN(CC(=O)*)CCN(CC(=O)O)CC1; Butanoyl(4-(4-MeO-phenyl)) = COc1ccc(CCCC(=O)*)cc1; ξAla(9-anthryl) = NC(Cc1c2ccccc2cc2ccccc12)C(=O)O; X1 = O=C(C1CCC(CN[*:1])CC1)[*:2]; ξK = NCCCCC(N)C(=O)O
Numbers only here, please. The scale is % ID/g.

Some solved entries appear below for comparison.
compound="COc1ccc(CCCC(=O)NCC(=O)NC(CCCCNC(=O)CN2CCN(CC(=O)[O-])CCN(CC(=O)[O-])CCN(CC(=O)[O-])CC2)CC(=O)NCC2CCC(C(=O)NC(Cc3c4ccccc4cc4ccccc34)C(=O)NCCCCC(NC(=O)NC(CC(F)C(=O)O)C(=O)O)C(=O)O)CC2)cc1.[177Lu+3] (stereo not drawn) [^177Lu-CCZ02019]" study_target="NRG-mice bearing LNCaP tumors" result_number=0.87
compound="O=C([O-])CN1CCN(CC(=O)[O-])CCN(CC(=O)NCCCCC(NC(=O)CNC(=O)CCCc2ccc([N+](=O)[O-])cc2)C(=O)NCC(=O)NCC2CCC(C(=O)NC(Cc3c4ccccc4cc4ccccc34)C(=O)NCCCCC(NC(=O)NC(CCCC(=O)O)C(=O)O)C(=O)O)CC2)CCN(CC(=O)[O-])CC1.[177Lu+3] (stereo not drawn) [^177Lu-CCZ02017] ({Butanoyl(4-(4-NO2Ph))}-G[ξK](DOTA)G[X1][ξAla(9-anthryl)]-{ξLys(Nα-CO-ξAad)})" study_target="NRG-mice bearing LNCaP tumors" result_number=1.18

COc1ccc(CCCC(=O)NCC(=O)NC(CCCCNC(=O)CN2CCN(CC(=O)[O-])CCN(CC(=O)[O-])CCN(CC(=O)[O-])CC2)C(=O)NCC(=O)NCC2CCC(C(=O)NC(Cc3c4ccccc4cc4ccccc34)C(=O)NCCCCC(NC(=O)NC(CCCC(=O)O)C(=O)O)C(=O)O)CC2)cc1.[68Ga+3] (stereo not drawn) [^68Ga-CCZ02009] ({Butanoyl(4-(4-MeO-phenyl))}-G[ξK](DOTA)G[X1][ξAla(9-anthryl)]-{ξLys(Nα-CO-ξAad)}) has a reported Biodistribution: Muscle of 1.34

----------
System: NRG-mice bearing LNCaP tumors
ASSAY NAME: Biodistribution (and PET/SPECT imaging) in NRG-mice bearing LNCaP tumors
Format: in vivo
REPORTED CONDITIONS: 72 h p.i., Avg
*1 amine or outer side, *2 acyl side, *3 side chain or, on linkers, in order; H or OH if unused. Where a SMILES comes first, the peptide text is derived from it. [ ]: non-standard residue; d: D form. The star is where a group is joined. ξ: configuration not given here. ξLys(Nα-CO-ξAad) = O=C(O)CCCC(NC(=O)NC(CCCCN*)C(=O)O)C(=O)O; Butanoyl(4-(4-NO2Ph)) = O=C(CCCc1ccc([N+](=O)[O-])cc1)*; DOTA = O=C(O)CN1CCN(CC(=O)O)CCN(CC(=O)*)CCN(CC(=O)O)CC1; ξAla(9-anthryl) = NC(Cc1c2ccccc2cc2ccccc12)C(=O)O; X1 = O=C(C1CCC(CN[*:1])CC1)[*:2]; ξK = NCCCCC(N)C(=O)O
MEASUREMENT LABEL: Biodistribution: Thyroid
Put your answer as a value accompanied by its unit after it.

Field Biodistribution: Thyroid (system: NRG-mice bearing LNCaP tumors) for entry O=C([O-])CN1CCN(CC(=O)[O-])CCN(CC(=O)NCCCCC(NC(=O)CNC(=O)CCCc2ccc([N+](=O)[O-])cc2)C(=O)NCC(=O)NCC2CCC(C(=O)NC(Cc3c4ccccc4cc4ccccc34)C(=O)NCCCCC(NC(=O)NC(CCCC(=O)O)C(=O)O)C(=O)O)CC2)CCN(CC(=O)[O-])CC1.[225Ac+3] (stereo not shown) [^225Ac-CCZ02017] ({Butanoyl(4-(4-NO2Ph))}-G[ξK](DOTA)G[X1][ξAla(9-anthryl)]-{ξLys(Nα-CO-ξAad)}) = 0.22 % ID/g
